Target: T1, IL-1beta (UniProt P01584 117-269)
T1 construct: also called IL-1β
Experiment: Biacore
measured parameter: binding result

binder: XPA23 Fab, heavy chain V50F (Fab, V domains shown) VH: EVQLLESGGGLVQPGGSLRLSCAASGFTFSKYFMFWVRQAPGKGLEWVSFISPSGGMTRYADSVKGRFTISRDNSKNTLYLQMNSLRAEDTAVYYCARVGYGGNSDYWGQGTLVTVSS VL: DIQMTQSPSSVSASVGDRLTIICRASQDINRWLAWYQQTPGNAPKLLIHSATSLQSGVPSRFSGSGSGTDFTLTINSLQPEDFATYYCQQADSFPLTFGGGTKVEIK
data value: no binding
--
binder: XPA23 Fab, heavy chain V99Q (Fab, V domains shown) VH: EVQLLESGGGLVQPGGSLRLSCAASGFTFSKYFMFWVRQAPGKGLEWVSVISPSGGMTRYADSVKGRFTISRDNSKNTLYLQMNSLRAEDTAVYYCARQGYGGNSDYWGQGTLVTVSS VL: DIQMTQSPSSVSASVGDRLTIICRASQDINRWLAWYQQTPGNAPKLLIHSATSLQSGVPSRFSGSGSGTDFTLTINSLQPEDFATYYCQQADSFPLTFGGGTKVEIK
data value: no binding
--
binder: XPA23 Fab, heavy chain D106F (Fab, V domains shown) VH: EVQLLESGGGLVQPGGSLRLSCAASGFTFSKYFMFWVRQAPGKGLEWVSVISPSGGMTRYADSVKGRFTISRDNSKNTLYLQMNSLRAEDTAVYYCARVGYGGNSFYWGQGTLVTVSS VL: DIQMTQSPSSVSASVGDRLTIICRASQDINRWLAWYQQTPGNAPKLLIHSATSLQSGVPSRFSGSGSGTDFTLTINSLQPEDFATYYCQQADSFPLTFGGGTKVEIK
data value: no binding
--
binder: XPA23 Fab, heavy chain R59Y (Fab, V domains shown) VH: EVQLLESGGGLVQPGGSLRLSCAASGFTFSKYFMFWVRQAPGKGLEWVSVISPSGGMTYYADSVKGRFTISRDNSKNTLYLQMNSLRAEDTAVYYCARVGYGGNSDYWGQGTLVTVSS VL: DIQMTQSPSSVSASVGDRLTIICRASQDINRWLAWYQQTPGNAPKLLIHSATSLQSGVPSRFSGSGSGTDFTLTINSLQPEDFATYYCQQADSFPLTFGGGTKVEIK
data value: no binding
--
binder: XPA23 Fab, heavy chain F35W (Fab, V domains shown) VH: EVQLLESGGGLVQPGGSLRLSCAASGFTFSKYFMWWVRQAPGKGLEWVSVISPSGGMTRYADSVKGRFTISRDNSKNTLYLQMNSLRAEDTAVYYCARVGYGGNSDYWGQGTLVTVSS VL: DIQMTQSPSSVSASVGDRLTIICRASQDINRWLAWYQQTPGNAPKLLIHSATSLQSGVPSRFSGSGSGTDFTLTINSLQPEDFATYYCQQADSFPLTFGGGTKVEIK
data value: no binding

Entry source: patent US20110118131A1
